Target: USP1 (construct USP1 (I-785, GG670, 671AA)/UAF1 (I-677)-Flag) (Homo sapiens (Human), UniProt O94782, G670A/G671A)
Sequence (O94782 whole entry G670A/G671A): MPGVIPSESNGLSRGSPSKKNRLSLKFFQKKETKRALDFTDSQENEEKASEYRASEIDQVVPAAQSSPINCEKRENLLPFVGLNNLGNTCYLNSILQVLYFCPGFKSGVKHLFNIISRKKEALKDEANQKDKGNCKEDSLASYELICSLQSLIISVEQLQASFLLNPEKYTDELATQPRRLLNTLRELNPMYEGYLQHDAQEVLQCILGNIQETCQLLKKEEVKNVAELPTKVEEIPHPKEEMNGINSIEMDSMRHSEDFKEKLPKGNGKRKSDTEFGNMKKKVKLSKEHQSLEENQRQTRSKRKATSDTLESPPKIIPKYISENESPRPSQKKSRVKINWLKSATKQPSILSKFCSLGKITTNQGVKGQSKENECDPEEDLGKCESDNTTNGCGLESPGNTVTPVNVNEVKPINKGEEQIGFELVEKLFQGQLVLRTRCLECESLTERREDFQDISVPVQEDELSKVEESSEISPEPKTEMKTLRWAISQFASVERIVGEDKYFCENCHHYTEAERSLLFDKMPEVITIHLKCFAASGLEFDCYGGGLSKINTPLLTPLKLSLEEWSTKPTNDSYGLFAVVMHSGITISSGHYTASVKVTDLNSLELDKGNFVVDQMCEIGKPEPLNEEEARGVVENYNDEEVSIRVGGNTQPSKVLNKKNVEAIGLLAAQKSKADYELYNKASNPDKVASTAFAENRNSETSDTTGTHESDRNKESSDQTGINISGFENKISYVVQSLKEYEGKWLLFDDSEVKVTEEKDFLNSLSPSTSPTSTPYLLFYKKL
Sequence (Q8TAF3 whole entry partner): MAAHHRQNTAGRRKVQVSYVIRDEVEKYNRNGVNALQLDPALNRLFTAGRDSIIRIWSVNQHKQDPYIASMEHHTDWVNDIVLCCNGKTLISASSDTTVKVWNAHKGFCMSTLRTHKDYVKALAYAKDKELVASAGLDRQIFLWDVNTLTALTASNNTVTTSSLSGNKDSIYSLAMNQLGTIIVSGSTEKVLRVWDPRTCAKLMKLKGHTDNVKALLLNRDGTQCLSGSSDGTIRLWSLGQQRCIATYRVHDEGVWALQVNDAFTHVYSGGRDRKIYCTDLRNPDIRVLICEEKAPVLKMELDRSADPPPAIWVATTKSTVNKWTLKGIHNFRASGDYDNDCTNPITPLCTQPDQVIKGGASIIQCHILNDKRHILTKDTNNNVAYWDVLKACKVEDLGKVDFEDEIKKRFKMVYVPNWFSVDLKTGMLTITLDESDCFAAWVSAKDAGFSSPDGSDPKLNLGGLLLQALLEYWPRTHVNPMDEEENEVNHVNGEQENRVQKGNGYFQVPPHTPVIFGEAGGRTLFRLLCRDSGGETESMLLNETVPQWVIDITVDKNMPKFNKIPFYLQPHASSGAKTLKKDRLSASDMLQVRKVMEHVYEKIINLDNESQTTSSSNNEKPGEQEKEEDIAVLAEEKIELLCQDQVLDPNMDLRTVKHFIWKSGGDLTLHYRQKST
Assay: Ubiquitin-Rhodamine 110 assay for USP1 activity
Settings: USP1/UAF1 25 pM, Ub-Rh110 25 nM, 30 min preincubation
pIC50: −log10 of the molar value.
quantity: pIC50

# chemical.string, pIC50
measured = [
    ("CC(C)c1ccccc1-c1ncc2[nH]c(=O)n(Cc3ccc(C(=O)NC4(c5ccccc5)CCCC4)cc3)c2n1", "6.70 to 7.30"),
]

// query pIC50 value for entry CC(C)c1ncccc1-c1ncc2c(n1)n([C@@H](C)c1ccc(-c3nc(C(F)(F)F)cn3C)cc1)c(=O)n2C
> 7.30

Please look up its pIC50: CC(C)c1ccccc1-c1ncc2[nH]c(=O)n(Cc3ccc(C(=O)N4CCC[C@@H]4C)cc3)c2n1
> 7.30

Give the measured pIC50 of Cc1cn(C)nc1-c1ccc(Cn2c(=O)[nH]c3cnc(-c4cccnc4C(C)C)nc32)cc1 .
5.70 to 6.70

What value of pIC50 has been recorded for this entry: CCN(CC)Cc1cn(-c2ccc(Cn3c(=O)[nH]c4cnc(-c5ccccc5C(C)C)nc43)cc2)nn1
< 5.70
